system: testosterone response; assay: Biological data comparing pure enantiomers of Casodex (bicalutamide) with the racemic mixture: reduction of the testosterone response; assay type: cell-based; conditions: read-out: EC50, Experiment 1
quantity.kind: EC50 (nM)
The reply should contain only the number, in nM.

## Task For the molecule shown here, C[C@]12CCC(=O)C[C@@H]1CC[C@@H]1[C@@H]2CC[C@]2(C)[C@@H](O)CC[C@@H]12 [DHT (Standard), dihydrotestosterone] , give the reported EC50.
## Result 0.18

====

Test system: testosterone response
Assay: Biological data comparing pure enantiomers of Casodex (bicalutamide) with the racemic mixture: reduction of the testosterone response
Format: cell-based
Details: read-out: IC50, Experiment 2
Source text: The data for dihydrotestosterone are EC50 values. The rest of the data are IC50 values, since the assay is measuring the amount of compound it takes to reduce the testosterone response 50%.
quantity.kind: IC50 (µM)
Write the value in µM as a bare number.

## Task What does the record list as IC50 for CC(O)(CS(=O)(=O)c1ccc(F)cc1)C(=O)Nc1ccc(C#N)c(C(F)(F)F)c1 (racemic) [Racemate] ?
## Result 1

====

tested on: testosterone response; test: Biological data comparing pure enantiomers of Casodex (bicalutamide) with the racemic mixture: reduction of the testosterone response; assay type: cell-based; conditions: Experiment 1; amount of compound it takes to reduce the testosterone response 50%; read-out: IC50, Experiment 1
Entries and their pIC50 values follow.
Formally, pIC50 is defined as -log10 of the concentration c, with c in mol/L.

Example entries and their recorded answers appear below.
{"molecule": "CC(O)(CS(=O)(=O)c1ccc(F)cc1)C(=O)Nc1ccc(C#N)c(C(F)(F)F)c1 [(R)]", "pIC50": 6.43}
{"molecule": "CC(C)(O)C(=O)Nc1ccc([N+](=O)[O-])c(C(F)(F)F)c1 [OH Flut. (Standard)]", "pIC50": 7.72}

Please turn your attention to the following entry.
## Task Consider the molecule shown here: C[C@@](O)(CS(=O)(=O)c1ccc(F)cc1)C(=O)Nc1ccc(C#N)c(C(F)(F)F)c1 [(S)] What is its recorded pIC50?
## Result 5.11
